Values from the nanobody polyreactivity screen of Harvey et al. (2022)

assay: yeast display, Sf9 membrane polyspecificity reagent, FACS + sequencing; frameworks hold sequencing errors
reported.endpoint: polyreactivity (PSR sort gate)

Below, each entry is followed by its recorded polyreactivity (PSR sort gate) result.
# sequence.chain, polyreactivity (PSR sort gate)
records = [
    ("QVQLVESGGGLVQAGGSLPLICAASGSTSVVNAMGWYRQAHGKERELVATIPRVGRTYYADSVKGRFTISRDNAKNTVYLQMNSLKPEDTAVYYCASRLVGRSYKYDYWGQGTQVTVSS", "high polyreactivity"),
    ("QVQLVESGGGLVQAGGSLRLTCAASGFIFRYYAMGWYRQAPGKERELVAAISRSGGSTYYADSVKGRFTISRDNAKNTVYLQMNSLKPEDTAVYYCAAKDGRSYYDRTPMDYWGQGTQVTVSS", "low polyreactivity"),
    ("QVQLVESGGGLVQAGGSLRLSCAASGRTFYGYAMGWYRQAPGKERELVASISYSGGNTYYADSVKGRFTISRDIAKNTVYLQMNSLKPEDTAVYYCAAEVVFFGWHYDYWGQGTQVTVSS", "high polyreactivity"),
    ("QVQLVESGGGLVQAGGSLRLSCAASGITFQGYTMGWYRQAPGKEWELVAAISSNGGRTYYADSVKGRFTISRDNAKNTVYLQMNSLKPEDTAVYYCAARSFWTYRSGGPSDYYYWGQGTQVTVSS", "high polyreactivity"),
    ("QVQLVESGGGLVQAGGSLRLSCAASGRIFVSNGMGWYRQAPGKESELVAVIRSSTGSTYYADSVKGRFTISRDNAKNTVYLQMNSLKPEDTAVYYCAAPNPFFEPSEYDYWAQGTQVTVSS", "low polyreactivity"),
    ("QVQLVESGGGLVQAGGSLRLSCAASGRTIIYNTMGWSRQAPGKEREFVAAINWSGGSTYYADSVKGCFTISRDNAKNTVYLQMNSLKPEDTAVYYCNAEAGYYRPLIYDYWGQGTQVTVSS", "low polyreactivity"),
]

For each of the items listed, what is its polyreactivity (PSR sort gate)?
1. QVQLVESGGGLVQAGGSLRLSCAASGITFFENAMGWYRQAPGKERELVAAISYSGGNTYADSVKGRFTISRDNAKNTVYLQMNSLKPEDTAVYYCNADYAGWGEYDYWGQGTQVTVSS
2. QVQLVESGGGLVQAGGSLRLSCAASGSIFSRYTMGWYRQAPGKERELVAVISTSGGSTYYADSVKGRFTISRDNAKNTVYLQMNSLKPEDTAVYYCNARPKRGSLGGPGYGYWGQGTQVTVSS

1. low polyreactivity
2. high polyreactivity

For each of the items listed, what is its polyreactivity (PSR sort gate)?
1. QVQLVESGGGLVQAGGSLRLSCAASGNTTPVNAMGWYRQAPGKERQLVAAITQSGGSTYYADSVKGRFTISRDNAKNTVYLQMNSLKPEDTAVYYCAADYGHYYGLYYWGQGTQVTVSS
2. QVQLVESGGGLVQAGGSLRLTCAASGSIFGPNTMGWYRQAPGKERELVAAIRCGGSTNYADSVKWRFTISRDNAKNTVYLQMNSLKPDDTAVYYCIATWNLFPGVLDRYVYWGQGTQVTVSS

low polyreactivity
low polyreactivity

For each of the items listed, what is its polyreactivity (PSR sort gate)?
1. QVQLVESGGGLVQAGGSLRLSCAASGRSFSRNAMGWYRQAPGTERELVAGISSGGSTNYADSVKGRFTISPDTAKNTVYIQMNSLKPEDTAVYYCAKDSAEFVTRYDYWGQGTQVTLSS
2. QVQLVESAGGLVQAGGSLRLSCAASGGIFSRYSMGWYRQAPGKERELVAAITRSGGSTYYADSVKGRFTISRDNAKNTVYLQLNSLKPEDTAVYYCSARRRGGSKYGYWGQGTQVTVSS
3. QVQLEESGGGLVQAGGSLRLSCAASGSIYYLNAMGWYRQAPGKERELVAAINSGGTTNYADSVKGRFTISRDNAKYTVYLQMNSLKPEDTAVYYCATDGYYYYYRVYKFDYWGQGTQVTVSS

1. low polyreactivity
2. high polyreactivity
3. low polyreactivity

For each of the items listed, what is its polyreactivity (PSR sort gate)?
1. QVQLVESGGGLVQAGGSLRLSCAASGSISHLYTMGCYRQSPGKERELVAAIRYSGGRTDYADSVKGRFTISRDNAKNTVYLQMNSLKPEDTAVYYCAAGRSFRGSYWYEYWGQGTQVTVSS
2. QVQLVESGGGLVQAGGSLRLSCAASGGTLEVYAMGWYRQAPGKEREFVAAISWSGGRTYYADSVKGRFTISRDNAKNTVYLQMNSLKPEDTAVYYCATRDRAGYYYWGQGTQVTVSS
3. QVQLVESGGGLVQAGGSLRLSCAASGFTFGRYVMGWYRQAPGKGRELVAAITSSGSRTYYADSVKGRFTISRDNAKNTVYLQMNSLKPEHTAVYYCAARVYWTPVYYWGQGTQVTVSS
4. QVQLVESGGGLVQAGGSLRLSCAASGRTFIGNAMGWYRQAPGKERELVAGISYRGGSTYYADSVKGRFTISRDNAKNTVYLQMNSLKPEDTAVYYCAAPGRGGYYYWGQGTQVTVSS
5. QVQLVESGGGLVQAGGSLRLSCAASGSTIFGNVMGWYRQAPGKERELVAVITNRGGSTYYADSVKGRFTISRDNAKNTVYLQMNSLKPEDTAVYYCATRSRPRSYYYWGQGTQVTVSS
6. QVQLVESGGGLVQAGGSLRLSCAASGSTFFRYAMGWYRQAPGKERELVAAITTSGGNTYYADSVKGRFTISRDNAKNTVYLQMNSLKPEDTAVYYCNVLRGFPRYYYWGQGTQVTVSS
7. QAQLQESGGSLVQAGGRLRLSCAASGYISVGSVMGWYRQAPSKERELVASIDQVANTNYADSVKGRFTISRDNAKNNVYLQMNSLKPEDTAVYYCATETTYILNYWGQVTQVTVSS

1. high polyreactivity
2. high polyreactivity
3. high polyreactivity
4. high polyreactivity
5. high polyreactivity
6. high polyreactivity
7. low polyreactivity

// polyreactivity (PSR sort gate) lookup, key: QVQLVESGGGLVQAGGSLRLSCAASGSIFSRYTMGWYRQAPGKERELVAAITSSGVSTYYADSVKGRFTISRDNAKNTVYLQMNSLKPEDTAVYYCAAYSVFRSYDYWGQGTQVTVSS high polyreactivity
